Reference for the values: patent US20120258980A1

Test system: VISA clinical isolates of MRSA (VI-MRSA) and of MSSA (VI-MSSA)
Assay: microbe, parasite or virus in culture
Assay type: cell-based, Staphylococcus aureus
Conditions: Staphylococcus aureus, MRSA / MSSA / NRS 79 / VISA, NRS79, VI-MRSA, America
value kind: log10(MIC) (log10 of the value in µg/mL)
Base-10 log of MIC, unit µg/mL.

Recorded log10(MIC), per entry:
# compound, target, assay value
measured = [
    ("CN[C@H](CC(C)C)C(=O)N[C@H]1C(=O)N[C@@H](CC(N)=O)C(=O)N[C@H]2C(=O)N[C@H]3C(=O)N[C@H](C(=O)N[C@H](C(=O)O)c4cc(O)cc(O)c4-c4cc3ccc4O)[C@H](O)c3ccc(c(Cl)c3)Oc3cc2cc(c3O[C@@H]2O[C@H](CO)[C@@H](O)[C@H](O)[C@H]2O[C@H]2C[C@](C)(N)[C@H](O)[C@H](C)O2)Oc2ccc(cc2Cl)[C@H]1O", "VISA clinical isolates of MRSA (VI-MRSA) and of MSSA (VI-MSSA)", 0.30),
    ("C[C@H]1COc2c(N3CCN(C)CC3)c(F)cc3c(=O)c(C(=O)O)cn1c23", "VISA clinical isolates of MRSA (VI-MRSA) and of MSSA (VI-MSSA)", 1.81),
    ("Cc1cc(=O)n(C)c2c3c4c(cc12)c(C)cc(=O)n4CO3", "VISA clinical isolates of MRSA (VI-MRSA) and of MSSA (VI-MSSA)", 0.00),
]

Quick check: log10(MIC) of Cc1onc(-c2ccccc2)c1C(=O)N[C@@H]1C(=O)N2[C@@H]1SC(C)(C)[C@@H]2C(=O)O ?
2.41

Quick check: log10(MIC) of CC1COc2c(N3CCN(C)CC3)c(F)cc3c(=O)c(C(=O)O)cn1c23 (stereo not drawn) ?
2.11

Quick check: log10(MIC) of C[C@@H]1CN(c2c(F)c(N)c3c(=O)c(C(=O)O)cn(C4CC4)c3c2F)C[C@H](C)N1 ?
1.20

Quick check: log10(MIC) of Cc1cc(=O)n2c3c(c4c(cc13)c(CO)cc(=O)n4C)OC2 ?
0.00

---

Test system: VISA clinical isolates of MRSA (VI-MRSA) and of MSSA (VI-MSSA)
Assay: microbe, parasite or virus in culture
Type: cell-based, Staphylococcus aureus
Details: Staphylococcus aureus, SA MER-S20, VI-MSSA, France
value kind: MIC

# molecular string, MIC
measured = [
    ("C[C@@H]1CN(c2c(F)c(N)c3c(=O)c(C(=O)O)cn(C4CC4)c3c2F)C[C@H](C)N1", "0.125 µg/mL"),
    ("CCn1cc(C(=O)O)c(=O)c2cc(F)c(N3CCNCC3)cc21", "0.5 µg/mL"),
]

Quick check: MIC of Cc1onc(-c2ccccc2)c1C(=O)N[C@@H]1C(=O)N2[C@@H]1SC(C)(C)[C@@H]2C(=O)O ?
1 µg/mL

---

We begin with a simple list: items and their reported MIC.
Test system: MRSA, CA-MRSA and MSSA of Staphylococcus aureus
Assay: MIC measurement, Test Example 4 (MRSA, CA-MRSA and MSSA strains)
Format: cell-based
Settings: Staphylococcus aureus, ISA62-1, MRSA
Structures can show the parent of a compound that is named as a salt.

# compound, assay value
data = [
    ("NC1CCN(c2nc3c(cc2F)c(=O)c(C(=O)O)cn3-c2ccc(F)cc2F)C1 (stereo not shown) [TFLX, tosufloxacin tosylate]", "≤ 0.063 µg/mL"),
]

Quick check: MIC of Cc1cc(=O)n2c3c(c4c(cc13)c(CO)cc(=O)n4C)OC2 ?
> 64 µg/mL

Quick check: MIC of Cc1cc(=O)n(C)c2c3c4c(cc12)c(C)cc(=O)n4CO3 ?
> 64 µg/mL

Quick check: MIC of C[C@@H]1CN(c2c(F)c(N)c3c(=O)c(C(=O)O)cn(C4CC4)c3c2F)C[C@H](C)N1 ?
≤ 0.063 µg/mL
